# Tested on: MDA-MB-231
# procedureDetails: Growth inhibition (cell proliferation assay), MDA-MB-231
# Type: cell-based
# conditionContext: read-out: Compound 1 Growth Inhibition IC50
endpointName: pIC50
// returns pIC50 (minus log10 of molar concentration), number only

Using known records, supply pIC50 for CO[C@H]1CC[C@H](N2C(=O)CNc3ncc(-c4ccc(C(C)(C)O)nc4)nc32)CC1 [Compound 1]
5.75

###

# Tested on: Phospho-PRAS40(T246)
# procedureDetails: Luminex multiplex assay, Phospho-PRAS40(T246)
# Format: cell-based
# conditionContext: PC3 cell line; read-out: Luminex PRAS40
A collection of molecules and their measured log10(IC50)
Field: value | Transform: log10 | Quantity: IC50 | Unit: µM

As a guide, the following entries are already answered.
Cc1c(-c2cnc3c(n2)N(CCC2CCOCC2)CC(=O)N3)ccc(-c2nnc[nH]2)c1F: 0.18
Cc1nc(-c2nnc[nH]2)ccc1-c1cnc2c(n1)N(C1CCOCC1)C(=O)CN2: -1.26
CO[C@H]1CC[C@H](CN2CC(=O)Nc3ncc(-c4ccc(C(C)(C)O)nc4)nc32)C1: -0.30
CC(C)(O)c1ccc(-c2cnc3c(n2)N(C2CCOCC2)C(=O)CN3)cn1: 0.17
CO[C@@H]1CC[C@H](N2C(=O)CNc3ncc(-c4ccc(C(C)(C)O)nc4)nc32)C1: -0.14

For Phospho-PRAS40(T246), give the measured log10(IC50) of the entry COCCn1c(=O)[nH]c2ncc(-c3cnc4[nH]ccc4c3)nc21
-0.28

Provide log10(IC50), system Phospho-PRAS40(T246), entry COC1CCC(N2CC(=O)Nc3ncc(-c4ccc(C(C)(C)O)nc4)nc32)C1 (stereo not shown) [C-23]
0.16

Give Phospho-PRAS40(T246) log10(IC50) for the following molecule: Cc1nc(-c2nnc[nH]2)ccc1-c1cnc2c(n1)N(CCN1CCOCC1)C(=O)CN2
-0.58

Consider the molecule Cc1cc(C(N)=O)ncc1-c1cnc2c(n1)N(CC1CCOCC1)C(=O)CN2 tested on Phospho-PRAS40(T246); state its log10(IC50).
-0.04

Quote Phospho-PRAS40(T246) log10(IC50) for entry CC(C)(O)c1ccc(-c2cnc3c(n2)N(CCC2CCOCC2)CC(=O)N3)cn1 .
-0.17

Write down measured log10(IC50) (Phospho-PRAS40(T246)) for this molecule. COC1CCC(CN2CC(=O)Nc3ncc(-c4ccc(C(C)(C)O)nc4)nc32)C1 (stereo not shown) [C-22]
0.06

Write log10(IC50) of Cc1nc(-c2nnc[nH]2)ccc1-c1cnc2c(n1)N(C(C)C)C(=O)CN2 ; system used: Phospho-PRAS40(T246)
-0.55

Enter log10(IC50) (test system Phospho-PRAS40(T246)) for COCCN1CC(=O)Nc2ncc(-c3ccc(-c4nnc[nH]4)nc3C)nc21
-0.20

###

# Tested on: Phospho-GSK3β(S9)
# procedureDetails: Luminex multiplex assay, Phospho-GSK3β(S9)
# Type: cell-based
# conditionContext: HCT116; IGF-I stimulation; read-out: p-GSK3β (S9)
endpointName: pIC50
Keep it numeric: pIC50 is minus log10 of the concentration in mol/L.

Read the entry CO[C@H]1CC[C@H](N2C(=O)CNc3ncc(-c4ccc(C(C)(C)O)nc4)nc32)CC1 [Compound 1] and write its reported pIC50.
6.66

###

# System: Phospho-PRAS40(T246)
# procedureDetails: Luminex multiplex assay, Phospho-PRAS40(T246)
# Assay type: cell-based
# conditionContext: PC3 cell line; read-out: Luminex PRAS40
# pIC50 per entry
Please note pIC50 is a logarithmic value: minus log10 of concentration in mol/L. Answer with that number alone.

Below are worked cases with known answers.
COC1CCC(N2C(=O)CNc3ncc(-c4ccc(C(C)(C)O)cc4)nc32)CC1 (centres unmarked) [C-48]: 6.38
CC(C)(O)c1ccc(-c2cnc3c(n2)N(CC2CCOCC2)CC(=O)N3)cc1 [C-11]: 6.12

Now examine the next entry.
Given the molecule CC(C)(O)c1ccc(-c2cnc3c(n2)N([C@H]2CC[C@H](O)CC2)C(=O)CN3)cn1 [C-65] , write its reported pIC50.
6.68

###

# Tested on: Phospho-PRAS40(T246)
# procedureDetails: Luminex multiplex assay, Phospho-PRAS40(T246)
# Format: cell-based
# conditionContext: PC3 cell line; read-out: Luminex PRAS40
endpointName: pIC50
// field semantics: pIC50 = negative decimal log of concentration (mol/L)

Example compounds with recorded pIC50:
Cc1nc(-c2nnc[nH]2)ccc1-c1cnc2c(n1)N(C)C(=O)CN2: 6.56
Cc1nc(-c2nnc[nH]2)ccc1-c1cnc2c(n1)N(C1CCC(O)CC1)C(=O)CN2 (stereo not drawn) [C-71]: 7.43
COC1CCC(N2C(=O)CNc3ncc(-c4ccc(-c5nnc[nH]5)nc4C)nc32)CC1 (stereo not drawn): 7.37
O=C1CNc2ncc(-c3ccc4[nH]ncc4c3)nc2N1CCC1CCOCC1: 6.46
COC1CCC(N2CC(=O)Nc3ncc(-c4ccc(C(C)(C)O)nc4)nc32)C1 (stereo not drawn) [C-29]: 5.67
CO[C@@H]1CC[C@H](N2CC(=O)Nc3ncc(-c4ccc(C(C)(C)O)nc4)nc32)C1: 5.63

Let us move to another entry and its pIC50.
With Phospho-PRAS40(T246) as the test system, provide measured pIC50 for this compound: CC(C)(O)c1ccc(-c2cnc3c(n2)N(CCC2CCOCC2)C(=O)CN3)cn1
6.85

###

# Test system: Phospho-4E-BP1(T46)
# procedureDetails: Luminex multiplex assay, Phospho-4E-BP1(T46)
# Assay type: cell-based
# conditionContext: U-87 MG; read-out: p-4E-BP1(T46)
# Text: Determination of Phospho-GSK3β(S9), Phospho-PRAS40(T246) and Phospho-4E-BP1(T46) and the Effect of Compound 1 or Rapamycin. The multiplex Luminex assay format differs from conventional enzyme-linked immunosorbent assay (ELISA) in that the multiplex capture antibody is attached to a polystyrene bead whereas the ELISA capture antibody is attached to the microplate well. The use of the suspension bead-based technology enables the multiplexing capabilities of the Luminex assays. […]
endpointName: pIC50
Interpret pIC50 as the negative base-10 log of the concentration measured in mol/L.

Consider the compound CO[C@H]1CC[C@H](N2C(=O)CNc3ncc(-c4ccc(C(C)(C)O)nc4)nc32)CC1 and give its recorded pIC50.
5.87

###

# Test system: Phospho-GSK3β(S9)
# procedureDetails: Luminex multiplex assay, Phospho-GSK3β(S9)
# Assay type: cell-based
# conditionContext: NCI-H23; read-out: p-GSK3β (S9)
endpointName: IC50

Return the recorded IC50 value; entry: CO[C@H]1CC[C@H](N2C(=O)CNc3ncc(-c4ccc(C(C)(C)O)nc4)nc32)CC1 [Compound 1]
> 2000 nM

###

# Test system: GSK-3β
# procedureDetails: MSD assay, GSK-3β phosphorylation in cell lysates
# Assay type: cell-based
# conditionContext: PC3 cell line; read-out: MSD GSK-3β
# key: entry, value: IC50

COC1CCC(N2C(=O)CNc3ncc(-c4cnc(-c5ncn[nH]5)cc4C)nc32)CC1 (stereo not drawn) [C-93]: > 1.5 nM
O=C1CNc2ncc(-c3ccc(-c4nc[nH]n4)nc3)nc2N1C1CCC(O)CC1 (stereo not drawn) [C-140]: > 500 nM

Please examine the following record next.
Determine from records and report IC50 for O=C1CN(C2CCOCC2)c2nc(-c3ccc(-c4ncn[nH]4)nc3)cnc2N1 [C-125]
> 500 nM

###

# Tested on: Akt(T308)
# procedureDetails: Inhibition of Akt(T308) phosphorylation in cell lines
# Assay type: cell-based
# conditionContext: PC3; read-out: p-Akt(T308)
endpointName: IC50 (nM)
Please give a number only; it is taken to be in nM.

Please indicate IC50 recorded for CO[C@H]1CC[C@H](N2C(=O)CNc3ncc(-c4ccc(C(C)(C)O)nc4)nc32)CC1 [Compound 1]
130

###

# Tested on: GSK-3β
# procedureDetails: MSD assay, GSK-3β phosphorylation in cell lysates
# Assay type: cell-based
# conditionContext: Homo sapiens, U-87 MG; U87MG cell line; read-out: MSD GSK-3β
pIC50: −log10 of the molar value.
endpointName: pIC50

Worked cases, pIC50 given:
COCCN1C(=O)CNc2ncc(-c3ccc(-c4nnc[nH]4)nc3C)nc21 [A-9]: < 5.70
Cc1nc(-c2nnc[nH]2)ccc1-c1cnc2c(n1)N(C(C)C)C(=O)CN2 [A-13]: < 5.70

Using known records, supply pIC50 for CCN1C(=O)CNc2ncc(-c3ccc(-c4nnc[nH]4)nc3C)nc21 [A-12]
< 5.70

###

# System: PC3
# procedureDetails: Growth inhibition (cell proliferation assay), PC3
# Format: cell-based
# conditionContext: read-out: Compound 1 Growth Inhibition IC50
endpointName: pIC50
Formally, pIC50 is defined as -log10 of the concentration c, with c in mol/L.

# return pIC50 of CO[C@H]1CC[C@H](N2C(=O)CNc3ncc(-c4ccc(C(C)(C)O)nc4)nc32)CC1 [Compound 1] (system: PC3)
6.96
